Here, each record is paired with measured log10 IC50 data.
Tested on: HCT-116
Test: Cytotoxicity assay (SRB), HCT-116
Assay type: cell-based
Details: Homo sapiens, HCT-116, 72 h, HCT116 cells, 3 days, SRB; read-out: In Vitro Cellular Activity IC50 HCT116
PROPERTY_MEASURED: log10 IC50 (log10 of the value in µM)

[[record]]
compound = "O=C1NC(=O)c2ccc(-c3ccsc3)cc2/C1=C/Nc1ccc(CN2CCC[C@@H]2CO)cc1 (stereo in doubt)"
target_under_test = "HCT-116"
reported_measurement = 0.41

[[record]]
compound = "NS(=O)(=O)c1ccc(CNC=C2C(=O)NC(=O)c3ccc(-c4csc5ccccc45)cc32)cc1"
target_under_test = "HCT-116"
reported_measurement = 1.49

[[record]]
compound = "COc1ccccc1-c1ccc2c(c1)C(=CNCc1ccc(O)c(O)c1)C(=O)NC2=O"
target_under_test = "HCT-116"
reported_measurement = 1.33

[[record]]
compound = "CN(C)CCNC(=O)C1CCN(c2ccc(N/C=C3\\C(=O)NC(=O)c4ccc(I)cc43)cc2)CC1"
target_under_test = "HCT-116"
reported_measurement = 0.30

[[record]]
compound = "O=C1NC(=O)c2ccc(I)cc2/C1=C/NCc1cc(O)c(-c2ccoc2)cn1"
target_under_test = "HCT-116"
reported_measurement = -0.26

[[record]]
compound = "Cc1cccc(-c2ccc3c(c2)C(=CNCc2ccc(O)c(O)c2)C(=O)NC3=O)c1"
target_under_test = "HCT-116"
reported_measurement = 1.20

[[record]]
compound = "CN1CCN(c2ccc(NC=C3C(=O)NC(=O)c4ccc(-c5ccc6[nH]ccc6c5)cc43)cc2)CC1"
target_under_test = "HCT-116"
reported_measurement = 0.36

[[record]]
compound = "CC1CCCN1Cc1ccc(NC=C2C(=O)NC(=O)c3ccccc32)cc1 (centres unmarked)"
target_under_test = "HCT-116"
reported_measurement = 0.88


Data provenance is patent US7713994B2.
